Catalogue of Fold improvement over hu1G7.v1 readings, one per entry.
Biological target: T1, human FcRH5 protein fragment (soluble) (human, UniProt Q96RD9 16-851)
T1 construct: whole entry named; also called soluble human FcRH5; Human FcRH5 (BIACORE analyte)
T1 sequence: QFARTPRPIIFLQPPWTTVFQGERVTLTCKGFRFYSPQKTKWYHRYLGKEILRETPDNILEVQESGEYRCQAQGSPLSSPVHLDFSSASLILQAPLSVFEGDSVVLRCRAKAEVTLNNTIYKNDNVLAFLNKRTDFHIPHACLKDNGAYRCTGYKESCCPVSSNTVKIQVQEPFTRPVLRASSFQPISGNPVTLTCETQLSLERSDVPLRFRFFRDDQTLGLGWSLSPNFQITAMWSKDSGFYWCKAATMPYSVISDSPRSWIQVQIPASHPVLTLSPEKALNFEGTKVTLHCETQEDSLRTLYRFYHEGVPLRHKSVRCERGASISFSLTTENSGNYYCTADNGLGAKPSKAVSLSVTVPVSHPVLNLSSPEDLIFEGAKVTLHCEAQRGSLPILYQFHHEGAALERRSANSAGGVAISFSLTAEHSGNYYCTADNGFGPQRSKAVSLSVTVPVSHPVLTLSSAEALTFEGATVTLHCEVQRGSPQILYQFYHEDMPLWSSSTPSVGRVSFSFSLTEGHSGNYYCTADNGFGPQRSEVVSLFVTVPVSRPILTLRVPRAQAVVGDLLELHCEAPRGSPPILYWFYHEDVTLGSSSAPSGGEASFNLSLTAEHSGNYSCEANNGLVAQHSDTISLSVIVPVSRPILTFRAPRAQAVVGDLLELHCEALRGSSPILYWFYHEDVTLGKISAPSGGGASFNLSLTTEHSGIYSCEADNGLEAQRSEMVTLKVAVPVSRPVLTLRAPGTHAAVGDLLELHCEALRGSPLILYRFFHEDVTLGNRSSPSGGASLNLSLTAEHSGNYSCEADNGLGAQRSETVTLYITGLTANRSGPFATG
Assay: BIACORE, human IgG1, soluble human FcRH5
Give the value, in units of fold, as a plain number.

Please review the following examples before continuing.
>  <binder>
hu1G7.v92 (antibody, human IgG1, V domains shown, human IgG1) VH: EVQLVESGPGLVKPSETLSLTCTVSGFSLTRFGVHWVRQPPGKGLEWLGVIWRGGSTDYNAAFVSRLTISKDNSKNQVSLKLSSVTAADTAVYYCSNHYYGSPDYALDNWGQGTLVTVSS VL: DIQMTQSPSSLSASVGDRVTITCKASQDVSNLVVWFQQKPGKSPKLLIYSGSYRYSGVPSRFSGSGSGTDFTLTISSLQPEDFATYYCQQHYSPPYTFGQGTKVEIK

>  <Fold improvement over hu1G7.v1, fold>
15.9

$$$$
>  <binder>
hu1G7.v93 (antibody, human IgG1, V domains shown, human IgG1) VH: EVQLVESGPGLVKPSETLSLTCTVSGFSTTRFGVHWVRQPPGKGLEWLGVIWRGGSTDYNAAFVSRLTISKDNSKNQVSLKLSSVTAADTAVYYCSNHYYGSPDYALDNWGQGTLVTVSS VL: DIQMTQSPSSLSASVGDRVTITCKASQDVSNLVVWFQQKPGKAPKLLIYSGSYRYSGVPSRFSGSGSGTDFTLTISSLQPEDFATYYCQQHYSPPYTFGQGTKVEIK

>  <Fold improvement over hu1G7.v1, fold>
25.3

$$$$

Could you now consider this next binder?
Given item 1G7.v1G (antibody, human IgG1, V domains shown, human IgG1 with the light chain of hu1G7.v1; also called G (hu1G7.v1 heavy chain M64G)) VH: EVQLVESGPGLVKPSETLSLTCTVSGFSLTRFGVHWVRQPPGKGLEWLGVIWRGGSTDYNAAFGSRLTISKDNSKNQVSLKLSSVTAADTAVYYCSNHYYGSSDYALDNWGQGTLVTVSS VL: DIQMTQSPSSLSASVGDRVTITCKASQDVSNIVVWFQQKPGKSPKLLIYSASYRYTGVPSRFSGSGSGTDFTLTISSLQPEDFATYYCQQHYSSPYTFGQGTKVEIK , the value recorded as its Fold improvement over hu1G7.v1 is 1
